// data source = paper PMC5078989

Exercise: for every item that follows, state its recorded EC50.
# Test system: panel of cancer cell lines
# Protocol text: Cell viability (CellTiter-Glo) dose-response across cancer cell line panel;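 also: after 72 h compound incubation with CellTiter-Glo ATP readout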
# Type: cell-based, human
# Experimental conditions: Homo sapiens, PaTu 8988s, PA-TU-8988S
# Description: Next, we explored the effect of CSN5 inhibition on the viability of cancer cells. […] A standardized CellTiter-Glo Assay (Promega #G7570) based on the quantification of ATP was applied according to the manufacturer's protocol to measure the amount of viable cells in culture. […] EC50 values were calculated from the plot of percentage of inhibition versus inhibitor concentration using the nonlinear regression analysis software Origin 7.5SR6 (OriginLab Corp.).
Output spec: scalar in µM, unitless text.

[in] With panel of cancer cell lines as the test system, provide measured EC50 for this compound: NS(=O)(=O)OC[C@@H]1C[C@@H](n2ccc3c(N[C@H]4CCc5ccccc54)ncnc32)C[C@@H]1O
[out] 12.2

[in] With panel of cancer cell lines as the test system, provide measured EC50 for this compound: CC(C)C[C@H](NC(=O)[C@H](Cc1ccccc1)NC(=O)c1cnccn1)B(O)O
[out] 0.0137
